Biological target: T1, TRAF2, Q12933
T1 chain: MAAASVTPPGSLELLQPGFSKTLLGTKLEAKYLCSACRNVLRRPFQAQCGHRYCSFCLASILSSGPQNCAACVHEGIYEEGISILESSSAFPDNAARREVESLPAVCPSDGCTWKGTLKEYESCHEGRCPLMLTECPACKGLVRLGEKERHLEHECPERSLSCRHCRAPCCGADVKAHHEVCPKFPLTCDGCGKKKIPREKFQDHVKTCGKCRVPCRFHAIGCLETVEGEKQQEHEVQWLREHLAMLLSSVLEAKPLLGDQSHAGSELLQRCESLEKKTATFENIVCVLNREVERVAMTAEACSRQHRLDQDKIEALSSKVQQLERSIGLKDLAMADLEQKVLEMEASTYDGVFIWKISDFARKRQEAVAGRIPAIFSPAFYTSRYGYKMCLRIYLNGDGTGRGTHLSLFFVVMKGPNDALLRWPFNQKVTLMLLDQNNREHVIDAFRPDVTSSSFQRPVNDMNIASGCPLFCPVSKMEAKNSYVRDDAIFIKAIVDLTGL
Assay: median log2 fold change of GCK-ALFA target abundance (FLAG IP / Myc IP barcode read proportion) (log2 ratio); each designed protein is fused to an ALFA-tag nanobody in HEK293 cells to bring the named protein to FLAG-tagged glucokinase (GCK); Myc marks an untargeted standard; higher = target protein stabilised (more abundant)
Conditions: target protein: 3xFLAG-MCP-GCK-ALFA reporter; HEK293 landing pad (RPLP)
In all, about 1,800 sequences were measured (“median log2 fold change of GCK-ALFA target abundance (FLAG IP / Myc IP barcode read proportion)”: median about 0.14, lowest 2% from about -0.84 on). Shown is part of a subset that was picked to be rich in the lowest values.
Reported median log2 fold change values are given for each entry in this list.
# answer = number (no unit)

# example entries with known answers
1) traf2_out_15_48_1367 (protein) DAAAYRAAMNAAADRIIATKDEVKKEVKELAKVASPEVKKKLNEVAKLIEAGAGSQEIIAALKEAAKVASPELKAKLEELAERLRAARREASAIAAAMAK : -0.184
2) traf2_out_6_156_2375 (protein) MLEKILEEAKKKIEELIKELAKASEEKKIAYISRIAGAVYRALQRMREAGASVEEIKKAVEELKKVAEEKAKEAGLDQDTIDLLLASIDAVGKVALEEAK : 0.151

Req: Returns the measured median log2 fold change for the input binder. Input: traf2_out_13_95_1184 (protein) SEETKKKINEIADDMLEKVEKILTELAEKVKDDPEVKKAVEEIKKTAVTKGIHTAIGELKELAKKYPEYKELINEAIEKIEEIRREAGKKVAEILKEEEE
Resp: -0.726

Req: Returns the measured median log2 fold change for the input binder. Input: traf2_out_18_167_1847 (protein) EEEIRKRREELSDRLVELSEVKRAARLALQALETDPSKVPAALAALREKAASIPELQPLVDAAEAALAAGDREGLRATLEKLIEKAQKLMNEVLKEYEAL
Resp: 0.224

Data provenance is the supplement of paper PMC12632987.
